experiment: sensitizers of A549 cells to miR-34 induction, primary screen, imaging, A549 dox-inducible miR-34, nuclei and caspase counts (AID 1347080); details: A549 miR-34 inducible, Hoechst nuclei count, 48 h; measured here: total cells without miR-34 induction
reported property: cell count
Give a plain numeric answer without units written out.

CC(=O)OCC(=O)[C@@]1(O)CCC2C3CCC4=CC(=O)CC[C@]4(C)C3C(=O)C[C@@]21C (some centres undefined) | 12500
CCC(=O)OCC(=O)[C@@]1(OC(=O)CC)[C@H](C)CC2C3C([C@@H](O)C[C@@]21C)[C@@]1(C)C=CC(=O)C=C1C[C@H]3Cl (some centres undefined) | 5890
CON=C(C(=O)N[C@@H]1C(=O)N2C(C(=O)O)=C(COC(N)=O)CS[C@H]12)c1ccco1 | 11300

Ask | Determine from records and report cell count for CC1=C(C(=O)O)N2C(=O)[C@@H](NC(=O)C(N)c3ccc(O)cc3)[C@H]2SC1 (some centres undefined)
Reply | 12700

Ask | Tell me its cell count given O=C(O)c1ccc2cc(-c3ccc(O)c(C45CC6CC(CC(C6)C4)C5)c3)ccc2c1 as the entry.
Reply | 1530

Ask | Please give measured cell count of the following entry: COc1cc(N)c(Cl)cc1C(=O)N[C@@H]1CCN(CCCOc2ccc(F)cc2)C[C@@H]1OC
Reply | 6860

* * *

tested on: R275C/Slo1WT/beta2; assay: modulators of BK channel variants, profiling panel, selectivity assay, cell-based, U2OS BacMam, thallium flux, beta subunits (AID 1259406); details: at 30 µM;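 note: initial slope of Thallos dye fluorescence rise after thallium is added; log ratio against the mean of 0.3% DMSO vehicle wells on the same plate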
Active and inactive are the calls of the source.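 Rule for the calls: active = thallium flux through the channel raised or lowered by more than 3 SD from vehicle-only wells, actives on both sides; inactive = the rest.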
reported property: log fold change Tl+ flux

Here's what some known entries look like.
O=C(CCn1nc(-c2ccc(F)cc2)ccc1=O)NCc1ccccc1 | 0.000143 (inactive)
NS(=O)(=O)c1cccc(NC(=O)c2cccnc2Oc2ccccc2)c1 | -0.0182 (inactive)
Clc1ccc(Sc2cn[nH]c2-c2ccc3c(c2)OCCO3)cc1 | -0.0512 (inactive)

Ask | Please list log fold change Tl+ flux recorded for the compound O=C(NCc1ccc2c(c1)OCO2)C1CCN(C(=O)OCc2ccccc2)CC1
Reply | 0.0194 (inactive)

Ask | Supply measured log fold change Tl+ flux of CC(=O)N(C(C)=O)c1ccc2c3c(cccc13)CC2 in your reply.
Reply | 0.0138 (inactive)

Ask | Return the recorded log fold change Tl+ flux value; entry: CC1=NC2SC=C(c3ccccc3Cl)N2C(=O)C1 (stereo unspecified)
Reply | 0.0321 (inactive)

* * *

assay: HepG2 cytotoxicity, primary screen, cytotoxicity control for P. falciparum antimalarial project, cell-based, ATP luminescence (AID 2303); conditions: HepG2 viability, 24-48 h, at 10 µM;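 note: 0% = DMSO wells and 100% = digitonin-killed cells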
The source made the active and inactive calls.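 Rule for the calls: active = inhibition above 50%; inactive = the rest.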
The categories you may choose from are active, inactive

Worked set:
CC(C)CNC(=O)c1ccc(-c2cccc(CN3CCC(N4CCCC4)CC3)c2)nc1 | inactive
N=C1SC(=Cc2cn[nH]c2-c2ccc(F)cc2)C(=O)N1c1nccs1 | inactive
CCCNC(=O)c1cncc(-c2ccc(CNC(CC)c3ccccc3)cc2)c1 (centres undefined) | inactive
CC(C)C[C@H](NC(=O)[C@H](Cc1ccccc1)N(C[C@H](Cc1ccccc1)NC(=O)OC(C)(C)C)C(=O)C(F)(F)F)C(=O)NC1CCN(Cc2ccccc2)CC1 | inactive

Ask | Tell me the recorded outcome of this test for COc1cc2nc(N3CCC(CCCC4CCNCC4)CC3)nc(NCc3ccccn3)c2cc1OC .
Reply | inactive

Ask | Recorded test call requested for Cc1cccc(C)c1CNc1cccc(-c2nc(C)c(C)[nH]2)c1
Reply | active

Ask | Which outcome was entered for the compound COc1ccc(-c2cnc3ccc(N4CCCC4)nn23)cc1OC in this test?
Reply | inactive

Ask | Status in this test for CCN(CC)CCCOc1ccc(Nc2nccc(-c3c(-c4cccc(NC(=O)c5c(F)cccc5F)c4)nn4ccccc34)n2)cc1F ?
Reply | active

Ask | # fetch the recorded call for CCOc1cccc(C(=O)Nc2nonc2-c2ccc(OC)c(OC)c2)c1 here
Reply | inactive

* * *

# red/green cell ratio (normalised) listing for each entry below
assay: differential killing of epithelial or mesenchymal cells, primary screen, imaging, PC-3E GFP, TEM4-18 mCherry, co-culture (AID 1345086); conditions: imaging cell counts, at 1 µM, actives lie on both sides, counts scaled to control wells, 1 = unselective;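 note: normalised mesenchymal count divided by normalised epithelial count so high means epithelial killing; cells exposed to compound for 72 h before imaging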
Provide a numeric answer; units are not to be included.

// solved cases for red/green cell ratio (normalised) follow
O=C(Cc1ccccc1)NCC1O[C@@H](OC2C(NC(=O)Cc3ccccc3)C[C@@H](NC(=O)Cc3ccccc3)[C@H](OC3OC(COS(=O)(=O)O)[C@@H](OS(=O)(=O)O)[C@H](NC(=O)Cc4ccccc4)[C@H]3OS(=O)(=O)O)[C@H]2OS(=O)(=O)O)[C@H](OS(=O)(=O)O)[C@@H](OS(=O)(=O)O)C1OS(=O)(=O)O (some centres not stated) | 1.14
COc1cccc(Oc2c(O)cc(C)cc2CC(=O)c2cc(C)cc(O)c2C(=O)c2c(O)cccc2O)c1C(=O)O | 1.1
COc1cc2c(cc1OC)Cc1cc(OC)c(OC)cc1Cc1cc(OC)c(OC)cc1C2 | 1.03
COc1cc(-c2ccc(N=Nc3ccc4c(S(=O)(=O)O)cc(S(=O)(=O)O)c(N)c4c3O)c(OC)c2)ccc1N=Nc1ccc2c(S(=O)(=O)O)cc(S(=O)(=O)O)c(N)c2c1O | 1.11
CN/C(=C\[N+](=O)[O-])NCCSCc1csc(CN(C)C)n1 | 0.9

Ask | Tell me red/green cell ratio (normalised) reported for COc1cc(O)cc(C(=O)c2ccccc2)c1S(=O)(=O)O
Reply | 1

Ask | Tell me measured red/green cell ratio (normalised) for C=C(C)[C@H]1CC=C(C(=O)O)CC1 please.
Reply | 0.84

Ask | Answer with the recorded red/green cell ratio (normalised) for the molecule listed here: CC(C)C[C@@H](NC(=O)OCC1c2ccccc2-c2ccccc21)C(=O)O
Reply | 0.8

Ask | Determine from records and report red/green cell ratio (normalised) for O=C(O)CC(O)(CC(=O)O)C(=O)O
Reply | 1

Ask | # return recorded red/green cell ratio (normalised) for entry CC(C)(S)C(N)C(=O)O (configuration not stated)
Reply | 0.95

Ask | Given COc1cc2c(c3oc4ccccc4c(=O)c13)[C@@H]1C=CO[C@@H]1O2 , respond with its red/green cell ratio (normalised).
Reply | 0.91

Ask | Quick one: give measured red/green cell ratio (normalised) for CN(C)[C@@H]1C(=O)C(C(=O)NCN2CCCC2)=C(O)[C@@]2(O)C(=O)C3=C(O)c4c(O)cccc4[C@@](C)(O)[C@H]3C[C@@H]12
Reply | 0.9

Ask | Provide measured red/green cell ratio (normalised) value, entry: Cc1cc(=O)c(C(=O)N[C@@H](C(=O)N[C@@H]2C(=O)N3C(C(=O)O)=C(CSc4nnnn4C)CSC23)c2ccc(O)cc2)c[nH]1 (some centres not stated)
Reply | 0.9

Ask | Note red/green cell ratio (normalised) for the molecule shown: CCCCCCCC/C=C\CCCCCCCC(=O)O
Reply | 1.2

Ask | Tell us which red/green cell ratio (normalised) value is on record for N=C(N)c1ccc(N=NNc2ccc(C(=N)N)cc2)cc1 (tested in a mixture with another compound)
Reply | 0.86

Ask | Complete the entry with red/green cell ratio (normalised) for CC(=O)[C@H]1CCC2C3CC=C4C[C@@H](OC(=O)CCC(=O)O)CC[C@]4(C)C3CC[C@@]21C (some centres not stated)
Reply | 0.87

Ask | For the molecule CN1C(C(=O)Nc2ccccn2)=C(O)c2sc(Cl)cc2S1(=O)=O , give its reported red/green cell ratio (normalised).
Reply | 0.78

* * *

Reported values of viability for individual entries
assay: ovarian cancer cell viability with rucaparib, profiling panel, oncology-focused library, rucaparib conditional (AID 1508598); details: patient-derived ovarian cancer cells, CellTiter-Glo viability, 144 h; at 0.000305 µM; OCI-C5x cells; without rucaparib; stronger effect = lower value
Report as a plain number; the unit % is understood.

In the examples that follow, each entry is paired with its recorded viability.
O=C(c1ccc(OCCN2CCCCC2)cc1)c1c(-c2ccc(O)cc2)sc2cc(O)ccc12 | 112
CC(NC(=O)c1ccccc1N=Cc1c(O)ccc2ccccc12)c1ccccc1 (centres undefined) | 99.9
Cc1ccc(S(=O)(=O)/C=C/C#N)cc1 | 97.6
O=c1[nH]c(-c2ccc(C(F)(F)F)cc2)nc2c1CSCC2 | 93.7
O=c1cc(N2CCOCC2)oc2c(-c3ccccc3)cccc12 | 103
N#Cc1c(O)c2c(-c3ccc(-c4ccccc4O)cc3)csc2[nH]c1=O | 121

Could you now look at the following compound, please?
Ask | Tell me viability reported for O=C1CN2Cc3c(ccc(Cl)c3Cl)N=C2N1
Reply | 124

* * *

molecular target: Protein kinase 7 (PK7), Plasmodium falciparum 3D7 (PF3D7_0213400) (UniProt Q7YTF7); experiment: inhibition of Plasmodium PK7 catalytic activity – biochemical, TCAMS antimalarial set, Kinase-Glo luminescence (AID 1159587); settings: recombinant PfPK7, Kinase-Glo ATP depletion luminescence
The source made the active and inactive calls. The rule behind the calls is not given here.
reported property: outcome

CN(C)C(=S)N=Nc1c(O)[nH]c2ccccc12 | inactive
CC(C)Sc1nc2c(c(=O)n1Cc1ccco1)C1(CCCCC1)Cc1ccccc1-2 | inactive
CN(C)CCN(C)Cc1ccc(-c2ccc3c(Nc4ccc(Oc5ccccc5)cc4)ccnc3c2)o1 | inactive
Cc1[nH]c(C)c(-c2ccc(Cl)cc2)c(=O)c1I | inactive
COc1ccc2nc(-c3cc(-c4ccc(NC(C)=O)cc4)cnc3N)[nH]c2c1 | inactive

Next:
Ask | Recall and state the measured outcome for Cc1ccc(OCCCCONC(=O)c2ccccc2)cc1 .
Reply | inactive

Hey, just so you know, these numbers are from PubChem BioAssay.
